These measurements were taken from PubChem BioAssay (NCATS).

Answer each item with its documented max response.
Target: Peroxisome proliferator-activated receptor alpha (Homo sapiens)
Assay: qHTS assay for small molecule agonists of the peroxisome proliferator-activated receptor alpha (PPARalpha) signaling pathway (AID 651778); further: % of control where 0% means no effect
Conditions: PathHunter PPARalpha complementation, chemiluminescence, 6 h; active compounds read high
Excerpt: National Center for Advancing Translational Sciences [NCATS] NIH Chemical Genomics Center [NCGC] U.S. Environmental Protection Agency [EPA] National Institutes of Environmental Health Sciences [NIEHS] National Toxicology Program [NTP] The Peroxisome proliferator-activated receptors (PPARs) are lipid-activated transcription factors of the nuclear receptor superfamily with three distinct subtypes (alpha, garmma and beta/delta). […]
Value expressed in %; do not type the unit.

Query: Retrieve max response on Peroxisome proliferator-activated receptor alpha (Homo sapiens); query [O-][Cl+]O
Reply: 0.737

Query: Retrieve max response on Peroxisome proliferator-activated receptor alpha (Homo sapiens); query Clc1ccc(C(Cl)(Cl)Cl)cc1Cl
Reply: 1.82

Query: Retrieve max response on Peroxisome proliferator-activated receptor alpha (Homo sapiens); query O=C(Cl)OCc1ccccc1
Reply: 0.201

Query: Retrieve max response on Peroxisome proliferator-activated receptor alpha (Homo sapiens); query Cl/C=C/Cl
Reply: -4.81

Query: Retrieve max response on Peroxisome proliferator-activated receptor alpha (Homo sapiens); query Nc1ccc(-c2ccccc2)cc1
Reply: -0.418

Query: Retrieve max response on Peroxisome proliferator-activated receptor alpha (Homo sapiens); query Cc1ccc(N)c(C)c1
Reply: -4.17

Query: Retrieve max response on Peroxisome proliferator-activated receptor alpha (Homo sapiens); query COC(=O)c1ccccc1N
Reply: -6.67

Query: Retrieve max response on Peroxisome proliferator-activated receptor alpha (Homo sapiens); query Oc1ccc(Cl)c(Cl)c1Cl
Reply: 0.378

Query: Retrieve max response on Peroxisome proliferator-activated receptor alpha (Homo sapiens); query O=C(O)c1cccc(Cl)c1
Reply: -1.81

Query: Retrieve max response on Peroxisome proliferator-activated receptor alpha (Homo sapiens); query CCCCOC(C)=O
Reply: -4.39

Query: Retrieve max response on Peroxisome proliferator-activated receptor alpha (Homo sapiens); query N#C/C(N)=C(/N)C#N
Reply: -0.162

Query: Retrieve max response on Peroxisome proliferator-activated receptor alpha (Homo sapiens); query ClC(Cl)Br
Reply: -1.39

Query: Retrieve max response on Peroxisome proliferator-activated receptor alpha (Homo sapiens); query Cc1ccc(N)cc1Cl
Reply: 3.75

Query: Retrieve max response on Peroxisome proliferator-activated receptor alpha (Homo sapiens); query Nc1ccc([N+](=O)[O-])cc1[N+](=O)[O-]
Reply: -8.48

Query: Retrieve max response on Peroxisome proliferator-activated receptor alpha (Homo sapiens); query ClC(Br)Br
Reply: -8.35

Query: Retrieve max response on Peroxisome proliferator-activated receptor alpha (Homo sapiens); query CC(=O)NNc1ccccc1
Reply: -1.86

---

Biological target: Mitogen-activated protein kinase 10 (Mus musculus) (UniProt Q61831)
Assay: JNK3 AlphaScreen Assay (AID 530);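 further: kinase came from lysate of stimulated human HepG2 cells; signal reports phosphorylation of biotinylated GST-cJun 1-79 at Ser73 with 10 µM ATP; on the % scale 0 is the no-effect control and ±100 the full control effect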
Details: JNK3 lysate, c-Jun phosphorylation; series mostly up to 57.1 µM
Inconclusive results are not listed. Active and inactive are the calls of the source. Calls follow the shape of the dose curve; as a rule, active = well fitted curve in either direction with a large enough effect (not every such curve was filed as active); inconclusive = small, poorly fitted or top-dose-only effect, or another doubt; inactive = flat fitted curve, though single readings scatter.
measuredEndpoint: activity change, negative = inhibition

COC(=O)[C@H](N)CCCN=C(N)N[N+](=O)[O-]: inactive
O=C(O)[C@@H](Br)[C@H](Br)C(=O)O: -1.13% [at 11.4 µM] (inactive)
Nc1ccc(-c2ccccc2)cc1: inactive
CC(C)[N+](=O)[O-]: inactive
O=C(O)CBr: inactive
COc1ccc(C(=O)O[C@H]2CC[C@@]3(C)[C@H]4CC[C@H]5[C@]3(C[C@]3(O)[C@H]6CN7C[C@H](C)CC[C@H]7[C@](C)(O)[C@]6(O)[C@H](O)C[C@]53O)O[C@]24O)cc1OC: -0.646% [at 11.4 µM] (inactive)

Query: Fill in activity change, negative = inhibition for record c1ccc(C2CO2)cc1 (centres undefined)
Reply: inactive

Query: Fill in activity change, negative = inhibition for record O=C(O)C(Cl)(Cl)Br
Reply: inactive

Query: Fill in activity change, negative = inhibition for record CCOP(=O)(OCC)OCC
Reply: inactive

Query: Fill in activity change, negative = inhibition for record O=c1[nH]cnc2[nH]cc(CN3CCCCC3)c12
Reply: 0.447% [at 11.4 µM] (inactive)

Query: Fill in activity change, negative = inhibition for record c1nc(N2CC2)c2cnn([C@@H]3CCCCO3)c2n1
Reply: 0.68% [at 11.4 µM] (inactive)

Query: Fill in activity change, negative = inhibition for record COC1=C(C)C(=O)c2c(c(COC(N)=O)c3n2C[C@@H]2[C@@H]3N2C)C1=O (some centres undefined)
Reply: -0.1% [at 11.4 µM] (inactive)

Query: Fill in activity change, negative = inhibition for record CSC([N-]/N=C/c1cccc(C)n1)=[S]=[Cu].CS[C@H]([S-])[N-]/N=C/c1cccc(C)n1
Reply: -6.87% [at 11.4 µM] (inactive)

Query: Fill in activity change, negative = inhibition for record CC(C)[C@]1(O)[C@@H](OC(=O)c2ccc[nH]2)[C@]2(O)[C@@]3(C)C[C@@]4(O)O[C@@]5([C@H](O)[C@@H](C)CC[C@]35O)[C@]2(O)[C@]41C
Reply: 0.163% [at 11.4 µM] (inactive)

Query: Fill in activity change, negative = inhibition for record O=S(=O)(O)F
Reply: inactive

Query: Fill in activity change, negative = inhibition for record C=CCCl
Reply: inactive
